Target: Protein Rev (Human immunodeficiency virus type 1 group M subtype B (isolate WMJ22)) (UniProt P05866)
Sequence (P05866 whole entry, looked up): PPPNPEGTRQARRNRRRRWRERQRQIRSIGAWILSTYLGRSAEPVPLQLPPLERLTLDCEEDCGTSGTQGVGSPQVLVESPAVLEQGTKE
Assay: disruptors of Rev peptide-RRE RNA complex – biochemical, FRET, protein-RNA interaction, primary screen (AID 704);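 also: 0% = median DMSO wells and 100% = median Neomycin B control wells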
Conditions: Rev peptide-RRE RNA binding, at 8 µM
Screen size: about 97,000 compounds; about 770 (0.79%) were called active.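 The calls were made as follows: active = inhibition above the screen-wide mean plus 3 SD (cut at about 35% in these data); inactive = the rest.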 The entries come from a sample that favours actives as a whole.
I would appreciate it if you answered using one of these outcomes: yes (1) for active, no (0) for inactive

# Molecule, Qualitative Label
rows = [
    ("Cc1c(C#N)c(NC(=O)c2ccccc2)n(Cc2ccccc2)c1C", "no (0)"),
]

Recorded call for COc1cnc(SCc2ccc(Cl)c(Cl)c2)nc1Cl ? no (0)

Recorded call for CCOC(=O)c1cc2n(c1N)-c1ccccc1C2=O ? yes (1)
